Quick reference: Amount of formed formazan, Solution 10 (a group of a drug combination) of the listed items.
- System: ROS17/2.8 cells
- experimental-protocol: Cell growth of ROS17/2.8 cells by the MTT method (formed formazan)
- Assay type: cell-based, rat
- condition-description: Test Compound in combination with 1α,25-dihydroxyvitamin D3; percentage to Solution 7 addition group; about 48 hours; average ± standard deviation of four wells

// known answers, use as guide
{"molecule": "Cc1nc(-c2ccc(OCCCCCOc3ccc(/C(N)=N/O)cc3)cc2)c(CCn2ccnc2)s1 [Compound 23]", "meas-value": "123 ± 10.2 # %"}
{"molecule": "Cc1nc(-c2ccc(OCCCCCOc3ccc(/C(N)=N/O)cc3)cc2)c(CCCl)s1 [Compound 3]", "meas-value": "112 ± 2.7 # %"}
{"molecule": "CCN(CC)CCc1sc(C)nc1-c1ccc(OCCCCCOc2ccc(/C(N)=N/O)cc2)cc1 [Compound 26]", "meas-value": "113 ± 2.7 # %"}

Query: Which measured Amount of formed formazan, Solution 10 (a group of a drug combination) belongs to Cc1nc(-c2ccc(OCCCCCOc3ccc(/C(N)=N/O)cc3)cc2)c(Cn2ccnc2)s1 [Compound 32] , tested on ROS17/2.8 cells?
Response: 110 ± 2.4 # %

Query: Checklist item: Amount of formed formazan, Solution 10 (a group of a drug combination) tested on ROS17/2.8 cells, entry C=Cc1sc(C)nc1-c1ccc(OCCCCCOc2ccc(/C(N)=N/O)cc2)cc1 [Compound 5] , value?
Response: 110 ± 2.4 # %

Query: Recall the recorded Amount of formed formazan, Solution 10 (a group of a drug combination) for Cc1nc(-c2ccc(OCCCCCOc3ccc(/C(N)=N/O)cc3)cc2)c(CCNCCCOC(C)C)s1 [Compound 25] with ROS17/2.8 cells and state it.
Response: 112 ± 1.5 # %

Query: Reported Amount of formed formazan, Solution 10 (a group of a drug combination) for ROS17/2.8 cells, given CN(C)CCc1sc(C2CCCCC2)nc1-c1ccc(OCCCCCOc2ccc(/C(N)=N/O)cc2)cc1 [Compound 28] ?
Response: 111 ± 2.0 # %

Query: What Amount of formed formazan, Solution 10 (a group of a drug combination) appears in the records for this molecule with ROS17/2.8 cells? CCN(C)c1nc(-c2ccc(OCCCCCOc3ccc(/C(N)=N/O)cc3)cc2)c(CN2CCOCC2)s1 [Compound 33]
Response: 113 ± 1.9 ## %

Query: Enter reported Amount of formed formazan, Solution 10 (a group of a drug combination) observed with ROS17/2.8 cells for CCCCc1sc(N(C)CCN2CCOCC2)nc1-c1ccc(OCCCCCOc2ccc(/C(N)=N/O)cc2)cc1 [Compound 13]
Response: 113 ± 2.1 # %

###

- Test system: ROS17/2.8 cells
- experimental-protocol: Cell growth of ROS17/2.8 cells by the MTT method (formed formazan)
- Type: cell-based, rat
- condition-description: amount of formed formazan, Solution 7 = 1.00
Below: a set of entries, each annotated with reported Relative index of Solution 8 (Test Compound alone).
// keep it numeric: no unit symbol after the value

{"substance-smiles": "Cc1nc(-c2ccc(OCCCCCOc3ccc(/C(N)=N/O)cc3)cc2)c(CCn2ccnc2)s1", "meas-value": 1.07}

Query: # lookup: Relative index of Solution 8 (Test Compound alone) of CCCN(CCC)c1nc(-c2ccc(OCCCCCOc3ccc(/C(N)=N/O)cc3)cc2)c(CC2CCCC2)s1
Response: 1.03

Query: Requested read-out: Relative index of Solution 8 (Test Compound alone). Entry: Cc1nc(-c2ccc(OCCCCCOc3ccc(/C(N)=N/O)cc3)cc2)c(CCNC(C)C)s1
Response: 1.10

Query: Given the entry CCCN(CCC)c1nc(-c2ccc(OCCCCCOc3ccc(/C(N)=N/O)cc3)cc2)c(C(C)C)s1 , report its measured Relative index of Solution 8 (Test Compound alone).
Response: 1.07

###

Recorded Relative index of Solution 8 (Test Compound alone) for the following compounds
- System: ROS17/2.8 cells
- experimental-protocol: Cell growth of ROS17/2.8 cells by the MTT method (formed formazan)
- Assay type: cell-based, rat
- condition-description: amount of formed formazan, Solution 7 = 1.00
Answer field: number only, no words.

{"compound": "Cc1nc(-c2ccc(OCCCCC(=O)Nc3ccc(/C(N)=N/O)cc3)cc2)c(C(C)C)s1 [Compound 18]", "meas-value": 1.06}
{"compound": "CCN(C)c1nc(-c2ccc(OCCCCCOc3ccc(/C(N)=N/O)cc3)cc2)c(CN2CCOCC2)s1 [Compound 33]", "meas-value": 1.06}
{"compound": "Cc1nc(-c2ccc(OCCCCCOc3ccc(/C(N)=N/O)c(F)c3)cc2)c(C(C)C)s1 [Compound 20]", "meas-value": 1.06}

Lab note: next compound to report on.
Query: I'd like to know its Relative index of Solution 8 (Test Compound alone). The compound in question is N/C(=N\O)c1ccc(OCCCCCOc2ccc(-c3nc(-c4cccnc4)sc3Cc3ccccc3)cc2)cc1 [Compound 2]
Response: 1.03

###

- System: ROS17/2.8 cells
- experimental-protocol: Cell growth of ROS17/2.8 cells by the MTT method (formed formazan)
- Assay type: cell-based, rat
- condition-description: Test Compound in combination with 1α,25-dihydroxyvitamin D3; percentage to Solution 7 addition group; about 48 hours; average ± standard deviation of four wells
The entries below are paired with their reported Amount of formed formazan, Solution 10 (a group of a drug combination).

Record excerpt, results attached:
{"compound": "CNC(=O)c1sc(N)nc1-c1ccc(OCCCCCOc2ccc(/C(N)=N/O)cc2)cc1 [Compound 31]", "meas-value": "110 ± 0.4 # %"}
{"compound": "Cc1sc(N(C)CCO)nc1-c1ccc(OCCCCCOc2ccc(/C(N)=N/O)cc2)cc1 [Compound 7]", "meas-value": "120 ± 2.3 ## %"}
{"compound": "CCc1nc(-c2ccc(OCCCCCOc3ccc(/C(N)=N/O)cc3)cc2)c(CC2CCCC2)s1 [Compound 4]", "meas-value": "112 ± 1.6 # %"}
{"compound": "CCc1sc(C2CCCCC2)nc1-c1ccc(OCCCCOc2ccc(/C(N)=N/O)cc2)cc1 [Compound 21]", "meas-value": "111 ± 1.7 # %"}

Query: Fill in the blank: the reported Amount of formed formazan, Solution 10 (a group of a drug combination) of CC(C)c1sc(N(C)C)nc1-c1ccc(OCCCCCOc2ccc(/C(N)=N/O)cc2)cc1 [Compound 17] is ____.
Response: 113 ± 1.7 # %

Query: Record request: Amount of formed formazan, Solution 10 (a group of a drug combination) value, item Cc1nc(-c2ccc(OCCCCC(=O)Nc3ccc(/C(N)=N/O)cc3)cc2)c(C(C)C)s1 [Compound 18]
Response: 115 ± 3.0 ## %

Query: Entry under review: N/C(=N\O)c1ccc(OCCCCCOc2ccc(-c3nc(-c4cccnc4)sc3Cc3ccccc3)cc2)cc1 [Compound 2] . Reported Amount of formed formazan, Solution 10 (a group of a drug combination)?
Response: 117 ± 2.6 # %

Query: // Amount of formed formazan, Solution 10 (a group of a drug combination) lookup, key: CC(C)c1sc(N(C)Cc2cccnc2)nc1-c1ccc(OCCCCCOc2ccc(/C(N)=N/O)cc2)cc1 [Compound 12]
Response: 115 ± 4.3 # %

###

The entries below are paired with their reported Relative index of Solution 8 (Test Compound alone).
- Test system: ROS17/2.8 cells
- experimental-protocol: Cell growth of ROS17/2.8 cells by the MTT method (formed formazan)
- Format: cell-based, rat
- condition-description: amount of formed formazan, Solution 7 = 1.00
Answer using only a numeral; do not append any unit.

Recorded results for 3 compounds are shown here.
{"compound": "CCCCc1sc(N(C)CCN2CCOCC2)nc1-c1ccc(OCCCCCOc2ccc(/C(N)=N/O)cc2)cc1 [Compound 13]", "meas-value": 1.03}
{"compound": "CN(C)CCc1sc(C2CCCCC2)nc1-c1ccc(OCCCCCOc2ccc(/C(N)=N/O)cc2)cc1 [Compound 28]", "meas-value": 0.99}
{"compound": "Cc1nc(-c2ccc(OCCCCCOc3ccc(/C(N)=N/O)cc3)cc2)c(CCNCCCOC(C)C)s1 [Compound 25]", "meas-value": 1.01}

Query: Could you tell me which Relative index of Solution 8 (Test Compound alone) is on file for CN(C)c1nc(-c2ccc(OCCCCCOc3ccc(/C(N)=N/O)cc3)cc2)c(CCN2CCOCC2)s1 [Compound 29] ?
Response: 1.02

Query: Sample CCc1sc(N(C)Cc2ccccc2)nc1-c1ccc(OCCCCCOc2ccc(/C(N)=N/O)cc2)cc1 [Compound 10] — what was its Relative index of Solution 8 (Test Compound alone)?
Response: 0.99

Query: What does the data say about its Relative index of Solution 8 (Test Compound alone)? Entry: CCCN(CCC)c1nc(-c2ccc(OCCCCCOc3ccc(/C(N)=N/O)cc3)cc2)c(CC)s1 [Compound 11]
Response: 1.03

Query: Reported Relative index of Solution 8 (Test Compound alone) for Cc1nc(-c2ccc(OCCCCCOc3ccc(/C(N)=N/O)cc3)cc2)c(N(C)C)s1 [Compound 35] : what is it?
Response: 1.01

Query: # lookup: Relative index of Solution 8 (Test Compound alone) of CC(C)c1sc(N(C)Cc2cccnc2)nc1-c1ccc(OCCCCCOc2ccc(/C(N)=N/O)cc2)cc1 [Compound 12]
Response: 1.05

Query: Which Relative index of Solution 8 (Test Compound alone) reading was recorded for the compound CCc1sc(C2CCCCC2)nc1-c1ccc(OCCCCOc2ccc(/C(N)=N/O)cc2)cc1 [Compound 21] ?
Response: 1.05
